test system: IRAK4; settings: concentration: 1 μM, replicates: in singlicate; n = 1;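 note: KINOMEscan kinase panel screen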
Measurement kind: %Inh (%)
All answers are understood in %, so give the number only.

stdin: Return %Inh measured with IRAK4 given this molecule: COc1cc2ncn(-c3cc(OCC4CCCO4)c(C(N)=O)s3)c2cc1OC (centres unmarked) [GSK204607]
stdout: 0

stdin: Next up: Cc1ccc(-c2cc(-c3c[nH]nc3-c3ccccn3)ccn2)cc1 [GW684088]
stdout: 0

stdin: Next up: CC(=O)Nc1nc2cnc(Nc3cc(NC(=O)c4cccc(CCC#N)c4)ccc3C)nc2s1
stdout: 15

stdin: Next up: CS(=O)(=O)c1ccc(-c2c(-c3ncn[nH]3)sc(N3CCOCC3)c2C#N)cc1
stdout: 0

stdin: Next up: Cc1ccccc1-n1cnc2c(N)ncnc21 [SKF-97510]
stdout: 0
